Molecular target: T1, his-tagged human PVRIG (h-PVRIG-his) recombinant protein (human, UniProt Q6DKI7 41-171, limits assumed)
T1 construct: bought from Acrobiosystems; also called Human PVRIG-his; human PVRIG recombinant protein; not shown: his tag
T1 sequence (looked up): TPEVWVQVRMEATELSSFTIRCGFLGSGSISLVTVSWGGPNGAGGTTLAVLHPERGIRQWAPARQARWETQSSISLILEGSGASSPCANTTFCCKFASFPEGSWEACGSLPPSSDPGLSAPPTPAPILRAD
Assay: BLI (Fortebio), antibody on Protein A sensor, 1:1 fit
List of koff values.
Give a bare numeral; the unit s⁻¹ is implied.

Solved cases (4 shown):
humanized anti-PVRIG antibody 30H2 (antibody, human IgG4 S228P, F234A L235A, V domains shown) VH: EVQLVESGGGLVQPGGSLRLSCAASGFTFSGDCMGWFRQAPGKGLDEGVATIDNAGRIKYADSVKGRFTISRDNAKNSLYLQMNSLRAEDTAVYYCAAGWTFGGQCSPADWGQGTQVTVSS: 0.000325
humanized anti-PVRIG antibody 39H1 (antibody, human IgG4 S228P, F234A L235A, V domains shown) VH: EVQLVESGGGLVQPGGSLRLSCAASGFTFSTDCMGWFRQAPGKGLEGVAHIDSDGIPRYVESVKGRFTISRDNAKNSLYLQMNSLRAEDTAVYYCVVGFKFGDYCAPNDWGQGTMVTVSS: 0.000865
humanized anti-PVRIG antibody 30H3 (antibody, human IgG4 S228P, F234A L235A, V domains shown) VH: EVQLVESGGGLVQPGGSLRLSCAASGYSYSGDCMGWFRQAPGKGLDEGVATIDNAGRIKYADSVKGRFTISRDNAKNSLYLQMNSLRAEDTAVYYCAAGWTFGGQCSPADWGQGTQVTVSS: 0.000358
humanized anti-PVRIG antibody 20H5 (antibody, human IgG4 S228P, F234A L235A, V domains shown) VH: EVQLVESGGGLVQPGGSLRLSCAASGYTSRTDCMGWFRQAPGKEHEGVAHIDSDGIPRYVDSVKGRFTISQDHAKNSLYLQMNSLRAEDTAVYYCVVGFKFDEDYCAPNDWGQGTMVTVSS: 1.35e-05

For the next question, use this binder.
-- ask Fill blank: measured koff of the binder humanized anti-PVRIG antibody 39H4 (antibody, human IgG4 S228P, F234A L235A, V domains shown) VH: EVQLVESGGGLVQPGGSLRLSCAASGYTSRTDCMGWFRQAPGKGLEGVAHIDSDGIPRYVESVKGRFTISQDHAKNSLYLQMNSLRAEDTAVYYCVVGFKFGDYCAPNDWGQGTMVTVSS is ____.
-- reply 9.11e-05

Values from patent US20240376207A1
